system: FXR:RXRa (NR concentration 270 nM, RXRa partner concentration 90 nM); experiment: PBM binding z-score (relative to random genomic background probes); higher = stronger binding; sequences stand for … in GC…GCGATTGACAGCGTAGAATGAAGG
Returns one of Satisfied or Not satisfied; Satisfied when PBM binding z-score is >= 0.7.

[
  {
    "biosequence": "ATCTCTAGTTAACCAAGTTCAGTGAATGCCGAAC",
    "class": "Not satisfied"
  },
  {
    "biosequence": "ATCTCTAGGTAAAGATTGTTCAGTGAATGCAAAT",
    "class": "Not satisfied"
  },
  {
    "biosequence": "TGAATGAGGTTAAAGATCAGGCAACGTGGCGTCG",
    "class": "Satisfied"
  },
  {
    "biosequence": "CGTCCAAGGTCAAAGGTCAGTGAAGAGATGACGG",
    "class": "Satisfied"
  }
]

###

system: PPARg:RXRa (NR concentration 180 nM, RXRa partner concentration 90 nM); experiment: PBM binding z-score (relative to random genomic background probes); higher = stronger binding; sequences stand for … in GC…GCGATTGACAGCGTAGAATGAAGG
attribute_measured: PBM binding z-score

[
  {
    "biosequence": "CCTTACGGGTCACTGACAGGTTAAAGCATTTGGA",
    "endpoint_result": 4.6
  },
  {
    "biosequence": "CGACCAAGGTCAGAGAGGTCAGTGAATGCCGAGT",
    "endpoint_result": 3.68
  },
  {
    "biosequence": "GCTATTAGTTGAAAGGGCGACCGAATGATTCTCG",
    "endpoint_result": 1.72
  },
  {
    "biosequence": "TCTTGTAGATCAATAGAGGTTAAGACAGTGCGCT",
    "endpoint_result": 0.205
  },
  {
    "biosequence": "ACTAGCAGGCCAAGGGTCACTCGAGATTAGTCCG",
    "endpoint_result": 7.9
  },
  {
    "biosequence": "TTGAGTAGGTTAGGGGCATTCAGAATGGCGTCGA",
    "endpoint_result": 1.34
  },
  {
    "biosequence": "AGAATGAGGCTATACGTAGATCAGGGAAGAAAGT",
    "endpoint_result": 0.801
  },
  {
    "biosequence": "AGAATGAGGTTAGTAAGATCAGGGAATTGCGGTC",
    "endpoint_result": 1.07
  },
  {
    "biosequence": "TCGATTAGGTTAGGGGCATTCAGAATGGCGTCGA",
    "endpoint_result": 0.358
  }
]

###

tested on: PPARg:RXRa DBDmut IVT, anti-RXR (DBD mutation: RXRa K156A/R161A, NR concentration 270 nM, RXRa partner concentration 90 nM); test: PBM binding z-score (relative to random genomic background probes); higher = stronger binding; sequences stand for … in GC…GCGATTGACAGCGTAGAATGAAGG
Criterion: PBM binding z-score meeting or surpassing 3. Met: satisfied. Not met: not satisfied.

[
  {
    "biosequence": "AGAATGAGGTTATTGAGATCAGGGAATTGCGGTC",
    "class": "satisfied"
  },
  {
    "biosequence": "CCAGACAGGTGAGAAGGAAACTCAGCCTCGATTA",
    "class": "not satisfied"
  },
  {
    "biosequence": "TGAATGTGGTTAAAGATCAGGGAACGTGGCGTCG",
    "class": "not satisfied"
  },
  {
    "biosequence": "GATACAGGGACAAGGCCAGAGTACGCGTATTGAT",
    "class": "not satisfied"
  },
  {
    "biosequence": "TATACAGGGTGAAAGGCCAGAGTACGAATGTCGA",
    "class": "not satisfied"
  },
  {
    "biosequence": "TCATATTGGTAATACAGGTGAAAGTCGGCATCTA",
    "class": "not satisfied"
  },
  {
    "biosequence": "AGAATGAGGTTATACGCAGATCAGGGAAGAAAGT",
    "class": "not satisfied"
  },
  {
    "biosequence": "ACTTACTGGTCAACGAGGTTATAGCACGCGTATA",
    "class": "not satisfied"
  },
  {
    "biosequence": "CAAACTAGGTCAAAGGTAAAAGTCGAGCCAACCA",
    "class": "satisfied"
  },
  {
    "biosequence": "CCTCGGAGGACAACAGGAGGTCAGAGCGGCCAGA",
    "class": "not satisfied"
  },
  {
    "biosequence": "CAGCCTTGGTCAGGGCCAGTATAGGAGGAACGTT",
    "class": "not satisfied"
  },
  {
    "biosequence": "ACTAGTTGGTTAGCTGAGGTCACACACAATTCGG",
    "class": "not satisfied"
  },
  {
    "biosequence": "CCTATTAGTAGACCATAAGGGCAACCGAAGCTCG",
    "class": "not satisfied"
  },
  {
    "biosequence": "ACCTCTAGGTAACAAGTTCAGTGAAAGAGAGGAC",
    "class": "satisfied"
  },
  {
    "biosequence": "CCGAGTAAGTTATGGGGCATTCAGGCAACGGTGA",
    "class": "not satisfied"
  }
]

###

test system: PPARg DBDmut:RXRa IVT, anti-PPARg (DBD mutation: PPARg1 K132A/R137A, NR concentration 270 nM, RXRa partner concentration 90 nM); test: PBM binding z-score (relative to random genomic background probes); higher = stronger binding; sequences stand for … in GC…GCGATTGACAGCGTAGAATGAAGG
The reader will find reported PBM binding z-score values listed item by item below.

[
  {
    "biosequence": "GCTAGCAGGTCATTTGGGTCACTCAATGACGGGC",
    "PBM binding z-score": 0.133
  },
  {
    "biosequence": "ACTATTAGTTGACTTAGGGCCACCGATACGACGC",
    "PBM binding z-score": 1.68
  },
  {
    "biosequence": "AGAACGAGGGCACGCTGAATTGATAGCAGAGTAG",
    "PBM binding z-score": 0.656
  },
  {
    "biosequence": "TCATATAGGTAACTGCTAGGTGAAAGTCCGATCT",
    "PBM binding z-score": 1.12
  },
  {
    "biosequence": "CGACCAAGGTCAAGGTCAGTGAAAGAGACTCGAA",
    "PBM binding z-score": 0.143
  },
  {
    "biosequence": "CTACCAAGGTGAACAAGGTAGTTGATTACTATTC",
    "PBM binding z-score": 0.56
  },
  {
    "biosequence": "ACTAGCAGGCCAAGGGTCACTGAAGATTAGTCCG",
    "PBM binding z-score": 0.528
  },
  {
    "biosequence": "CATATAGGGTCAGCTAGGCCAGAGTAGGGACGGC",
    "PBM binding z-score": 1.01
  },
  {
    "biosequence": "TCTCGGAGGACACGATAGGTCAGAGCTCGACATC",
    "PBM binding z-score": -0.736
  },
  {
    "biosequence": "CGTCCAAGGTCAGCAGGTCAGTTAAAGCGACGTG",
    "PBM binding z-score": -0.851
  },
  {
    "biosequence": "ATCTCTAGGTAAAGATAGTTCAGTGTATGCAAAT",
    "PBM binding z-score": 0.591
  }
]

###

tested on: RARb:RXRa (NR concentration 270 nM, RXRa partner concentration 90 nM); test: PBM binding z-score (relative to random genomic background probes); higher = stronger binding; sequences stand for … in GC…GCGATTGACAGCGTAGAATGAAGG
attribute_measured: PBM binding z-score

[
  {
    "biosequence": "CGTCCAAGGTCAAAGGTCAGTGAGGAGATGACGG",
    "target_under_test": "RARb:RXRa (NR concentration 270 nM, RXRa partner concentration 90 nM)",
    "endpoint_result": 5.85
  },
  {
    "biosequence": "ACTAGCAGGCCAAGTTTGGCTCACTCAAACAAAG",
    "target_under_test": "RARb:RXRa (NR concentration 270 nM, RXRa partner concentration 90 nM)",
    "endpoint_result": 0.218
  },
  {
    "biosequence": "GCTGCTAGGTAAACTGATGGTCAGCTAAAGCTCG",
    "target_under_test": "RARb:RXRa (NR concentration 270 nM, RXRa partner concentration 90 nM)",
    "endpoint_result": -0.155
  },
  {
    "biosequence": "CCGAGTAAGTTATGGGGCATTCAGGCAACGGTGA",
    "target_under_test": "RARb:RXRa (NR concentration 270 nM, RXRa partner concentration 90 nM)",
    "endpoint_result": -0.111
  },
  {
    "biosequence": "CTTCAAAGTTCAAGGTAACGTAACAGAAAGCAGC",
    "target_under_test": "RARb:RXRa (NR concentration 270 nM, RXRa partner concentration 90 nM)",
    "endpoint_result": 5.1
  },
  {
    "biosequence": "CAAACTAGGTCAAGAGGTCCAAGTCCGCTTCCCG",
    "target_under_test": "RARb:RXRa (NR concentration 270 nM, RXRa partner concentration 90 nM)",
    "endpoint_result": 4.02
  },
  {
    "biosequence": "TCATATAGGTATAAGGTGAAAGTCGGTGTGGTAA",
    "target_under_test": "RARb:RXRa (NR concentration 270 nM, RXRa partner concentration 90 nM)",
    "endpoint_result": 1.23
  },
  {
    "biosequence": "ATCTCTAGGTAAGACACAGTTCAGTGAAGAACGC",
    "target_under_test": "RARb:RXRa (NR concentration 270 nM, RXRa partner concentration 90 nM)",
    "endpoint_result": 0.924
  },
  {
    "biosequence": "TCTTGTAGATCAGCTGGTTAAGAAAGCTGGCCAA",
    "target_under_test": "RARb:RXRa (NR concentration 270 nM, RXRa partner concentration 90 nM)",
    "endpoint_result": -0.526
  },
  {
    "biosequence": "CCGACTGGGTCAAGGTTACCATAACGCACAGCCA",
    "target_under_test": "RARb:RXRa (NR concentration 270 nM, RXRa partner concentration 90 nM)",
    "endpoint_result": 3.62
  },
  {
    "biosequence": "CCTTACGGGTCACGAAGTTATAGCACGACGAGCG",
    "target_under_test": "RARb:RXRa (NR concentration 270 nM, RXRa partner concentration 90 nM)",
    "endpoint_result": 4.51
  },
  {
    "biosequence": "TCTTCTAGATCAAAGGTTAAGAAAGCCGAAGCCT",
    "target_under_test": "RARb:RXRa (NR concentration 270 nM, RXRa partner concentration 90 nM)",
    "endpoint_result": 1.98
  },
  {
    "biosequence": "TCTTGTGGATCAACAGGAGGTTAAGAAAGATCGA",
    "target_under_test": "RARb:RXRa (NR concentration 270 nM, RXRa partner concentration 90 nM)",
    "endpoint_result": 0.59
  },
  {
    "biosequence": "GTACAAAGGTGAATAGGTCGTTGATGAGTAGGCG",
    "target_under_test": "RARb:RXRa (NR concentration 270 nM, RXRa partner concentration 90 nM)",
    "endpoint_result": 3.49
  },
  {
    "biosequence": "TTACCAAGGTGAGCGGAGGTCGTTGATCCAACTC",
    "target_under_test": "RARb:RXRa (NR concentration 270 nM, RXRa partner concentration 90 nM)",
    "endpoint_result": 1.92
  },
  {
    "biosequence": "TAGCCTAGGTGATTCAGGGGCCAGTATAGAAAGC",
    "target_under_test": "RARb:RXRa (NR concentration 270 nM, RXRa partner concentration 90 nM)",
    "endpoint_result": 0.516
  },
  {
    "biosequence": "TCTCAGAGGACACGAAGGTCAGAGCTTTCCAGAG",
    "target_under_test": "RARb:RXRa (NR concentration 270 nM, RXRa partner concentration 90 nM)",
    "endpoint_result": 3.78
  },
  {
    "biosequence": "AGAATGCGGTTACCAAAGATCAGGGAAACGCTTG",
    "target_under_test": "RARb:RXRa (NR concentration 270 nM, RXRa partner concentration 90 nM)",
    "endpoint_result": 0.18
  },
  {
    "biosequence": "GGAACGAGGGCATTGGAGTTGATAGCATGGCGAT",
    "target_under_test": "RARb:RXRa (NR concentration 270 nM, RXRa partner concentration 90 nM)",
    "endpoint_result": 1.72
  },
  {
    "biosequence": "ACTATTAGTTGACTAAGGGCAACCGATACGACGC",
    "target_under_test": "RARb:RXRa (NR concentration 270 nM, RXRa partner concentration 90 nM)",
    "endpoint_result": 1.53
  },
  {
    "biosequence": "CGTCCAAAGTCATAGGAGGTCAGTGAAGACAGAT",
    "target_under_test": "RARb:RXRa (NR concentration 270 nM, RXRa partner concentration 90 nM)",
    "endpoint_result": 2.7
  }
]
